- measured on: CLDN18.2 expressed in mouse healthy stomach tissue (mouse) (UniProt P56857)
- experiment notes: flow cytometry, live cells from healthy mouse stomach, antibody 4 µg/ml
Each entry below carries its recorded % of positive healthy stomach cells (Mouse 2).
# value in %; strip the unit string

Consider the following illustrative entries.
[[record]]
binder = "hCl1a (antibody, human IgG1, kappa, V domains shown) VH: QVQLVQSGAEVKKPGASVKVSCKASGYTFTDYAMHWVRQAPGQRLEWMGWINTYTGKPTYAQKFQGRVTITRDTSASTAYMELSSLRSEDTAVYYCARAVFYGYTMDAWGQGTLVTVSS VL: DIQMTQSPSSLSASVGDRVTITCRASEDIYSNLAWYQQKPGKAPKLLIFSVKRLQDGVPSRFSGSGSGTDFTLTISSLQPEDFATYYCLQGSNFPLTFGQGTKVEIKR"
observed_result = 0.3

[[record]]
binder = "cCl1-1 (antibody, V domains shown) VH: QIQLVQSGPELKKPGESVKISCKASGYTFTDYAMHWVKQAPGKGLKWMGWINTYTGKPTYADDFKGRFVFSLEASASTANLQISNLKNEDTATYFCARAVFYGYTMDAWGQGTSVTVSS VL: DIQMTQSPASLSASLGETISIACRASEDIYSNLAWYQQKSGKSPQLLIFSVKRLQDGVPSRFSGSGSGTQYSLKISGMQPEDEGDYFCLQGSNFPLTFGSGTKLEIK"
observed_result = 0.3


For the binder hCl1c (antibody, human IgG1, kappa, V domains shown) VH: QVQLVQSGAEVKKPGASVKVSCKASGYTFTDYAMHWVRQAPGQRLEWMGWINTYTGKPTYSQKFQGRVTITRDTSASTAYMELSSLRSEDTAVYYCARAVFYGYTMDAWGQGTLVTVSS VL: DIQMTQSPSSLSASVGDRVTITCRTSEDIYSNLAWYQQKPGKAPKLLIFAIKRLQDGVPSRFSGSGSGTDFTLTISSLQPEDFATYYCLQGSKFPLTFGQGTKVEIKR , report % of positive healthy stomach cells (Mouse 2).
0.4

Give me measured % of positive healthy stomach cells (Mouse 2), please, for this binder: hCl1f (antibody, human IgG1, kappa, V domains shown) VH: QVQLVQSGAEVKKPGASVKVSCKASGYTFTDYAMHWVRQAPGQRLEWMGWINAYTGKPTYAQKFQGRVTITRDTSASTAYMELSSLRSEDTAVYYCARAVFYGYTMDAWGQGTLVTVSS VL: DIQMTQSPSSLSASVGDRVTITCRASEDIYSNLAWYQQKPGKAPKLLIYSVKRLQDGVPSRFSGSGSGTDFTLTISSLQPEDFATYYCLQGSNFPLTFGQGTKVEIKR
0.1
